Biological target: human plasma DPP-IV (Homo sapiens, UniProt P27487)
Construct: DPP-IV activity in human and rat plasma
Sequence (P27487 39-766 limits assumed): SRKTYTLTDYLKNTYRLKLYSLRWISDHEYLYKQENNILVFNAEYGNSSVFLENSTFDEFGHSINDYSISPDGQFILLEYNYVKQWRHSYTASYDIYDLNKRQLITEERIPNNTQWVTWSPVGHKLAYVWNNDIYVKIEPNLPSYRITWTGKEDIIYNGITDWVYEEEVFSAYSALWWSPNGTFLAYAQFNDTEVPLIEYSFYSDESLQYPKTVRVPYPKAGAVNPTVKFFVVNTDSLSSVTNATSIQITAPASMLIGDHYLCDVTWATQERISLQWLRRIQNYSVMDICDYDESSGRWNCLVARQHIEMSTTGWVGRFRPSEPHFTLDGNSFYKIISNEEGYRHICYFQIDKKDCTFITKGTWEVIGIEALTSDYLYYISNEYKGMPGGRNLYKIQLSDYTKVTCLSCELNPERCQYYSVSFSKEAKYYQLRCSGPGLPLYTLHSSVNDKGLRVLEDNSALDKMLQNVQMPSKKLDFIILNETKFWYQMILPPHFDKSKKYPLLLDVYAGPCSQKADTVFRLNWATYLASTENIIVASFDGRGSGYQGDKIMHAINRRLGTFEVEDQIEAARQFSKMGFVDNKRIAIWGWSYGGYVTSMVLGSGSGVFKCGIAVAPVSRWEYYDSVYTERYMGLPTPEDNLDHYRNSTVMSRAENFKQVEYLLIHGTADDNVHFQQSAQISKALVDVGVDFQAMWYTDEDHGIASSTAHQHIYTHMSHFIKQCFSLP
Experiment: Inhibition of DPP-IV activity in human plasma
Conditions: substrate H-Glycine-Proline-AMC, pH 7.8, room temperature, 20 min
pIC50: −log10 of the molar value.
Assign label 1 whenever pIC50 does not fall below 8; assign label 0 whenever it does.

{"Compound Structure": "N#C[C@@H]1CCCN1C(=O)[C@@H]1Cc2ccc(OCc3ccccc3)cc2CN1", "Cat": "label 0"}
{"Compound Structure": "N#C[C@@H]1CCCN1C(=O)[C@@H]1Cc2ccc(OCC(N)=O)cc2CN1", "Cat": "label 1"}
{"Compound Structure": "CCCOc1ccc2c(c1)CN[C@H](C(=O)N1CCC[C@H]1C#N)C2", "Cat": "label 0"}
{"Compound Structure": "N#C[C@@H]1CCCN1C(=O)[C@@H]1Cc2ccccc2CN1", "Cat": "label 0"}
{"Compound Structure": "COc1ccc2c(c1)CN[C@H](C(=O)N1CCC[C@H]1C#N)C2", "Cat": "label 1"}
